src = PubChem BioAssay AID2314

assay: Cycloheximide Counterscreen for Small Molecule Inhibitors of Shiga Toxin; settings: cell reporter, cycloheximide protein synthesis inhibition counterscreen; stronger effect = higher value; also: read at 38.3 µM for the half of the compounds with a filed dose; 0% is about no effect
Screen size: about 300,000 compounds; about 37,000 (12%) were called active. This is one part of a sample in which actives are shown more often than they occur.

{"molecule": "O=S(=O)(NC1CCCCC1N1CCCCC1)c1ccc(Cl)cc1 (stereo not given)", "max response, %": -6.15}
{"molecule": "CC/C(=N\\NC(=O)c1c(C)nc2ccccn12)c1ccc(Cl)cc1", "max response, %": 6.12}
{"molecule": "O=c1c2ccccc2[nH]c(=S)n1CCN1CCC(=C(c2ccc(F)cc2)c2ccc(F)cc2)CC1", "max response, %": -1.14}
{"molecule": "CCOC(=O)C1CCN(C(=O)Cn2nc(C)c3c(C)n(-c4ccccc4)nc3c2=O)CC1", "max response, %": -0.326}
{"molecule": "O=C(O)c1ccc(NC(=O)c2ccc(COc3ccc(Cl)cc3)o2)cc1", "max response, %": 2.26}

====

test: Cycloheximide Counterscreen for Small Molecule Inhibitors of Shiga Toxin; details: cell reporter, cycloheximide protein synthesis inhibition counterscreen; stronger effect = higher value; also: read at 38.3 µM for the half of the compounds with a filed dose; 0% is about no effect
In all, about 300,000 compounds went through this assay and about 37,000 (12%) were called active. Shown is part of a subset that was picked to be rich in actives.

{"molecule": "Cc1nnc(SCC(=O)N/N=C/c2cn(-c3ccccc3)nc2-c2ccc(F)cc2)n1-c1ccccc1", "max response, %": 10.2}
{"molecule": "COc1cc(/C=N/NC(=O)Cc2ccccc2)cc(OC)c1OC", "max response, %": -1.38}
{"molecule": "CCOC(=O)c1ccc(NC(=O)c2nc[nH]c2C(=O)NCc2ccccc2)cc1", "max response, %": -1.19}
{"molecule": "Cc1ccc(Cl)cc1NC(=O)c1ccccn1", "max response, %": 19.9}
{"molecule": "COc1cc2c(cc1OC)/C(=C/C(=O)c1ccc(NC(C)=O)cc1)NCC2", "max response, %": -5.05}
{"molecule": "Cc1ccccc1CN1C(=O)c2ccccc2Sc2ccc(C(=O)NCCCN3CCOCC3)cc21", "max response, %": -3.67}
{"molecule": "Cc1noc(C)c1C(=O)Nc1ccccn1", "max response, %": 7.73}
{"molecule": "CC(=O)Nc1ccc(S(=O)(=O)N(C)c2nc3ccccc3nc2Cl)cc1", "max response, %": 18}
{"molecule": "COc1ccc(CCn2c(NN=C3CCCC3)nc3c2c(=O)[nH]c(=O)n3C)cc1", "max response, %": 0.589}
{"molecule": "O=C1c2cccc(OCC(=O)N3N=C(c4cccs4)CC3c3ccc(F)cc3)c2CCN1Cc1ccccc1 (stereo not given)", "max response, %": 4.05}

====

experiment: Cycloheximide Counterscreen for Small Molecule Inhibitors of Shiga Toxin; conditions: cell reporter, cycloheximide protein synthesis inhibition counterscreen; stronger effect = higher value; also: read at 38.3 µM for the half of the compounds with a filed dose; 0% is about no effect
In all, about 300,000 compounds went through this assay and about 37,000 (12%) were called active. What follows is part of a selection rich in actives, with near analogues and random picks from the rest.
attribute measured: max response (%)

{"structure as smiles": "Cc1cc(C)cc(C(=O)NCCN2CCOCC2)c1", "readout units": "%", "result number": -3.62}
{"structure as smiles": "CC(=O)Oc1cc2c(C(=O)NCCN3CCOCC3)c(C)oc2c2ccccc12", "readout units": "%", "result number": 23.5}
{"structure as smiles": "CC(=O)Nc1ccc(/C=N/NC(=O)c2cccs2)cc1", "readout units": "%", "result number": 58.5}
{"structure as smiles": "O=C(CNC(=O)c1cccs1)N/N=C/c1cccc(Br)c1", "readout units": "%", "result number": -3.86}
{"structure as smiles": "CCN(CC)c1ccc(/C=N/NC(=O)CNC(=O)c2cccnc2)cc1", "readout units": "%", "result number": -5.38}
{"structure as smiles": "Cc1ccc(-n2c(C)cc(/C=N\\NC(=O)CC(=O)NC(C)C)c2C)cc1", "readout units": "%", "result number": -4.19}
{"structure as smiles": "CCN(CC)c1ccc(/C=N/NC(=O)CNC(=O)c2cccs2)cc1", "readout units": "%", "result number": 19.2}
{"structure as smiles": "CCOC(=O)N/N=C/c1cccnc1", "readout units": "%", "result number": 11.3}
{"structure as smiles": "Cc1ccc(-c2cc(C(=O)N/N=C/C=C/c3ccco3)c3ccccc3n2)cc1C", "readout units": "%", "result number": 26.2}
{"structure as smiles": "Cc1cccc(-n2c(C)cc(/C=N\\NC(=O)c3cccs3)c2C)c1", "readout units": "%", "result number": 56.1}
{"structure as smiles": "Brc1ccc(-c2csc(N/N=C/c3cccnc3)n2)cc1", "readout units": "%", "result number": 19.4}
